Biological target: human Cav2.2 (Homo sapiens)
Test: Assessment of calcium channel activity using FLIPR (Ca2+ influx in IMR32 cells)
Conditions: IMR32 cells endogenously expressing human Cav2.2; 60 minute pre-incubation; 2 μM nifedipine; depolarized with 80 mM KCl, 5 mM CaCl2
pIC50: −log10 of the molar value.
readout-kind: pIC50

Here's what some known entries look like.
[
  {
    "compound": "O=C1N(Cc2nc(-c3ccncc3)no2)CCC1(c1ccccc1)c1ccccc1 [Example 222]",
    "pIC50": 5.27
  },
  {
    "compound": "CC(CNC(=O)CN1CCCC(c2ccccc2)(c2ccccc2)C1=O)(c1ccccc1)c1ccccc1 [Example 77]",
    "pIC50": 5.77
  },
  {
    "compound": "O=C1N(Cc2nc(COc3ccc(Cl)cc3)no2)CCCC1(c1ccccc1)c1ccccc1 [Example 263]",
    "pIC50": 5.46
  },
  {
    "compound": "COc1cc(OC)cc(OCCCN(C)CCN2CCC(c3ccc(F)cc3)(c3ccc(F)cc3)C2=O)c1 [Example 105]",
    "pIC50": 5.78
  }
]

(A) COc1cc(CN2CCN(CCN3CCC(c4ccc(F)cc4)(c4ccc(F)cc4)C3=O)CC2)cc(OC)c1 [Example 63]
(B) O=C1[C@@H](c2ccc(F)cc2)CCN1Cc1nc(-c2ccc(C(F)(F)F)cc2)no1 (single isomer, unassigned) [Example 237]
Which has the higher pIC50, A or B ? Identify your selection by its label.
A
(A: 5.78, B: 5.55)

(1) CC(C)(C)OC(=O)N1CCN(CC(=O)N2CCN(C(c3ccccc3)c3ccccc3)CC2)C(=O)C1c1ccccc1 (centres unmarked) [Example 101]
(2) O=C(CN1CCC(c2ccc(F)cc2)C1=O)N1Cc2ccc(F)cc2C1 (centres unmarked) [Example 227]
Which value of pIC50 is smaller, the one for 1 or the one for 2 ? Identify your selection by its label.
2

* * *

Molecular target: human Cav2.2 (Homo sapiens)
Assay: Assessment of calcium channel activity using FLIPR (Ca2+ influx in IMR32 cells)
Details: IMR32 cells endogenously expressing human Cav2.2; 60 minute pre-incubation; 2 μM nifedipine; depolarized with 80 mM KCl, 5 mM CaCl2
pIC50: −log10 of the molar value.
readout-kind: pIC50

Here's what some known entries look like.
[
  {
    "compound": "O=C(CN1CCC(c2ccccc2)(c2ccccc2)C1=O)N1CCOC(c2ccccc2)(c2ccccc2)C1",
    "readout-kind": "pIC50",
    "recorded-value": 6.16
  },
  {
    "compound": "O=C1[C@H](c2ccc(F)cc2)CCN1Cc1nc(-c2ccc(C(F)(F)F)cc2)no1 (single isomer, unassigned)",
    "readout-kind": "pIC50",
    "recorded-value": 5.56
  },
  {
    "compound": "O=C(CN1CCCC(c2ccccc2)(c2ccccc2)C1=O)N1CCC(c2ccccc2)(c2ccccc2)CC1",
    "readout-kind": "pIC50",
    "recorded-value": 6.18
  },
  {
    "compound": "O=C(CN1CCC(c2ccc(F)cc2)(c2ccc(F)cc2)C1=O)N1CC2(CCN(Cc3ccccc3)CC2)C1",
    "readout-kind": "pIC50",
    "recorded-value": 6.14
  },
  {
    "compound": "O=C(CN1CCCC(c2ccccc2)(c2ccccc2)C1=O)N1CCc2ccccc2C1",
    "readout-kind": "pIC50",
    "recorded-value": 5.15
  }
]

(I) O=C1C(c2ccc(F)cc2)CCN1Cc1nc(-c2ccc(C(F)(F)F)cc2)no1 (centres unmarked)
(II) CN(CCCN1CCCC(c2ccccc2)(c2ccccc2)C1=O)CCc1ccccc1
Which has the higher pIC50, I or II ? Identify your selection by its label.
II

* * *

Molecular target: human Cav2.2 (Homo sapiens, UniProt Q00975)
Sequence (Q00975 whole entry): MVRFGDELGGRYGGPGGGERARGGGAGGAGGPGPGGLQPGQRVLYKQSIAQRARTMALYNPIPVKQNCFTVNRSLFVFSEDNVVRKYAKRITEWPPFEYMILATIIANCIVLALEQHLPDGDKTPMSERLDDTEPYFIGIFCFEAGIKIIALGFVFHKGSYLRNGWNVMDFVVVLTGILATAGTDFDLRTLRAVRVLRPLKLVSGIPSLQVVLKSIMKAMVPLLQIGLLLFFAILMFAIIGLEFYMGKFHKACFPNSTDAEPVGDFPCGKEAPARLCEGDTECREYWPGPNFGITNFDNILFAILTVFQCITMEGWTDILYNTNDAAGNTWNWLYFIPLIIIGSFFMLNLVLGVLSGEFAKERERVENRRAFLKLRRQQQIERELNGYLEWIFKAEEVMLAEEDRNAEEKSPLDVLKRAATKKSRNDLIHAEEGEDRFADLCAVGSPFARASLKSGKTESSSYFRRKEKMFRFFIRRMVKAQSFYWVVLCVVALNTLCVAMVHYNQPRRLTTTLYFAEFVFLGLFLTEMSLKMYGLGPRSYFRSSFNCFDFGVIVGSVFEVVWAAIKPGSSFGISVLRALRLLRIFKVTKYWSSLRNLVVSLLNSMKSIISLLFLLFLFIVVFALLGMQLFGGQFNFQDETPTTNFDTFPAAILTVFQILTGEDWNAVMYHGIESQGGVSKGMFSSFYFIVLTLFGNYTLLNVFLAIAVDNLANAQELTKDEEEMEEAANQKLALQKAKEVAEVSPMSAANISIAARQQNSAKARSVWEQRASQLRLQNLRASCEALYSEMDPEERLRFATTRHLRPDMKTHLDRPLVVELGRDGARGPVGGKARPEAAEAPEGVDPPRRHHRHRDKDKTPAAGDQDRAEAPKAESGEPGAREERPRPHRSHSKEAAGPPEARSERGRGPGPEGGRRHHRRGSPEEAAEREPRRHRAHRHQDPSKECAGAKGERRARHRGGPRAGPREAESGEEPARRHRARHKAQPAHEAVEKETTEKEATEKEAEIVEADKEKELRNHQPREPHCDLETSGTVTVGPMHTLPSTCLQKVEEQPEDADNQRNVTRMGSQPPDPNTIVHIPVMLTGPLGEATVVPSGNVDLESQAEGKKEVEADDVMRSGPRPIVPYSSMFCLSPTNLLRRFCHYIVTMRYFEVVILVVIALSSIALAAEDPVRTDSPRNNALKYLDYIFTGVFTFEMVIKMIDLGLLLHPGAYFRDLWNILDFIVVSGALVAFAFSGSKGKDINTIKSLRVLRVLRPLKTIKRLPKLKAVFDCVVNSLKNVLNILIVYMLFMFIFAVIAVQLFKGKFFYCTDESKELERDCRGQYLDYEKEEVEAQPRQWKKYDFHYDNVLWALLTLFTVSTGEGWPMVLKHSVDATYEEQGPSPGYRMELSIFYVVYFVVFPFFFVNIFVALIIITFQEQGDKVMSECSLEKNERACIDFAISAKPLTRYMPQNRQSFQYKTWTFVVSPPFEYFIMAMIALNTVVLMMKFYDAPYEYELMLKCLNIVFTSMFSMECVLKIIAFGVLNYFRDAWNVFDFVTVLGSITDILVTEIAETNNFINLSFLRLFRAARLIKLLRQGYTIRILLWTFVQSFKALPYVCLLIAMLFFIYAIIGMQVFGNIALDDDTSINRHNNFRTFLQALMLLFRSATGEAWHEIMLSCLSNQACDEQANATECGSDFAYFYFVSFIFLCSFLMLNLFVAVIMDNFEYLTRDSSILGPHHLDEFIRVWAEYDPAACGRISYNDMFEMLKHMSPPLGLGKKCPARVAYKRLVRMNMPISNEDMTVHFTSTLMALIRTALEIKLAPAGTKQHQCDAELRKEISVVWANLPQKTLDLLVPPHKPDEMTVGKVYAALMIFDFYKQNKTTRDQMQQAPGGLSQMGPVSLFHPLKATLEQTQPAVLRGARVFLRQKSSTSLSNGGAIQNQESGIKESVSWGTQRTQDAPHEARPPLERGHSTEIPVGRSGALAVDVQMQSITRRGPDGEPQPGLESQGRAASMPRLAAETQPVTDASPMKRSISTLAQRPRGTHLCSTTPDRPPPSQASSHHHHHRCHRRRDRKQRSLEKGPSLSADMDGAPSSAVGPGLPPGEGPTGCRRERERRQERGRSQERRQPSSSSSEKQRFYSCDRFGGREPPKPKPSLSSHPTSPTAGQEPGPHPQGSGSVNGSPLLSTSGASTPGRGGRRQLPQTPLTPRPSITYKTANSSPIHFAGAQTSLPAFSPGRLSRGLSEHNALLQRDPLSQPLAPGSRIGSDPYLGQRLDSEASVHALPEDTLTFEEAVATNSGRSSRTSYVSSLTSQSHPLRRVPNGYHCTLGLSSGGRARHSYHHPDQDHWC
Sequence (P54289 25-951 partner limits assumed): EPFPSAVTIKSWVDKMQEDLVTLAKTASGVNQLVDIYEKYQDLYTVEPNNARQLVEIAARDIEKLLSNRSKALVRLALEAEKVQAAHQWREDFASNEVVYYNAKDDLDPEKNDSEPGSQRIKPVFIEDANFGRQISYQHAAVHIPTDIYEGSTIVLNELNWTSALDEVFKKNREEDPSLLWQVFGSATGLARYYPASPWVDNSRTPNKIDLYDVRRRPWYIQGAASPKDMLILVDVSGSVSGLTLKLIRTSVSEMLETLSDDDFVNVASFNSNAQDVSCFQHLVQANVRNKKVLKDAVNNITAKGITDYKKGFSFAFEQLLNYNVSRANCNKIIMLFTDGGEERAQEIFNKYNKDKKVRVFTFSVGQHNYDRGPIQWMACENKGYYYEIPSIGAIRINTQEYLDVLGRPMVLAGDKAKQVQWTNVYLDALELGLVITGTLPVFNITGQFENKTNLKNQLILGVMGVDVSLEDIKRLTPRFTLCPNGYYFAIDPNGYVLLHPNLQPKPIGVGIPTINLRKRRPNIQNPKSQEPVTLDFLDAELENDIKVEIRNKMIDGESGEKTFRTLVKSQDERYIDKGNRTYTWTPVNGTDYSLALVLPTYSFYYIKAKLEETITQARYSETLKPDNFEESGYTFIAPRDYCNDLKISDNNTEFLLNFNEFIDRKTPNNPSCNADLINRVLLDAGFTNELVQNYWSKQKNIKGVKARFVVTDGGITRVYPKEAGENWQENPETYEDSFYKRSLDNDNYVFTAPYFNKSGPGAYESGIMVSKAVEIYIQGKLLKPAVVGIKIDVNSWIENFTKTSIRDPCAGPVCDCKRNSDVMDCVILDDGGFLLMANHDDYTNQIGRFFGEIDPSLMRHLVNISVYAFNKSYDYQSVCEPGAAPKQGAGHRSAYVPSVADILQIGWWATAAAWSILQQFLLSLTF
Sequence (P54289 952-1103 partner limits assumed): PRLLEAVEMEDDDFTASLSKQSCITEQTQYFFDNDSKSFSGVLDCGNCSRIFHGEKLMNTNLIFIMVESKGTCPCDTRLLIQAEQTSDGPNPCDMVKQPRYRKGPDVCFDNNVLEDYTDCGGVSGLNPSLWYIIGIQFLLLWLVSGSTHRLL
Sequence (P54284 whole entry partner): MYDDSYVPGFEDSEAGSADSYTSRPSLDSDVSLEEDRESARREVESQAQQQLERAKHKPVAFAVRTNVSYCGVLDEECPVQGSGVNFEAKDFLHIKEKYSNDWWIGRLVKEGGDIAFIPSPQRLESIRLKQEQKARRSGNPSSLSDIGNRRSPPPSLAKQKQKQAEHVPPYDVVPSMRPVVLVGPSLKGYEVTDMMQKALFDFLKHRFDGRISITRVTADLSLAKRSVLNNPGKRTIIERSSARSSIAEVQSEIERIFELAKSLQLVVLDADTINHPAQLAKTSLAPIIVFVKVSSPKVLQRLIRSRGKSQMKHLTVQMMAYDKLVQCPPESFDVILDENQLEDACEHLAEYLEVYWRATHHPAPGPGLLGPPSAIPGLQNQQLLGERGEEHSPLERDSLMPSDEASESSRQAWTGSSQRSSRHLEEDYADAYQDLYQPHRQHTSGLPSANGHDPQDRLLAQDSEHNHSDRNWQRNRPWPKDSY
Assay: Assessment of calcium channel activity using FLIPR (Ca2+ influx in IMR32 cells)
Conditions: IMR32 cells endogenously expressing human Cav2.2; 60 minute pre-incubation; 2 μM nifedipine; depolarized with 80 mM KCl, 5 mM CaCl2
readout-kind: IC50 (nM)

[
  {
    "compound": "O=C(CN1CCC(c2ccccc2)(c2ccccc2)C1=O)N1CCC(=C(c2ccccc2)c2ccccc2)CC1",
    "readout-kind": "IC50",
    "recorded-value": 1910
  },
  {
    "compound": "O=C(CN1CCCC(c2ccccc2)C1=O)N1CCN(Cc2cccc(C(F)(F)F)c2)CC1 (stereo not drawn)",
    "readout-kind": "IC50",
    "recorded-value": 5900
  },
  {
    "compound": "O=C(CN1CCC(c2ccccc2)(c2ccccc2)C1=O)N1CCC(C(O)(c2ccc(F)cc2)c2ccc(F)cc2)CC1",
    "readout-kind": "IC50",
    "recorded-value": 710
  },
  {
    "compound": "O=C(CN1CCC(c2ccccc2)(c2ccccc2)C1=O)NCc1ccc(C(F)(F)F)nc1",
    "readout-kind": "IC50",
    "recorded-value": 5280
  },
  {
    "compound": "O=C(CN1CCC(c2ccccc2)(c2ccccc2)C1=O)N1CCc2ccc(C(F)(F)F)cc2C1",
    "readout-kind": "IC50",
    "recorded-value": 2130
  },
  {
    "compound": "O=C(CN1CCC(c2ccc(F)cc2)C1=O)N1CCc2ccc(F)cc2C1 (stereo not drawn)",
    "readout-kind": "IC50",
    "recorded-value": 9890
  },
  {
    "compound": "CC(C)COc1ccc(-c2noc(CN3CCCC(c4ccccc4)(c4ccccc4)C3=O)n2)cc1",
    "readout-kind": "IC50",
    "recorded-value": 10700
  },
  {
    "compound": "O=C(CN1CCC(c2ccccc2)(c2ccccc2)C1=O)NC1CCCc2ccccc21 (stereo not drawn)",
    "readout-kind": "IC50",
    "recorded-value": 3030
  }
]

(I) O=C(CN1CCC(c2ccccc2)(c2ccccc2)C1=O)N[C@H]1CC[C@H]2CN(Cc3cccc(C(F)(F)F)c3)C[C@H]21 (relative stereo)
(II) Cc1ccc(-c2noc(CN3CCC(c4ccccc4)(c4ccccc4)C3=O)n2)cc1
(III) O=C(CN1CCCC(c2ccccc2)(c2ccccc2)C1=O)N1CCC(NC(c2ccccc2)c2ccccc2)CC1
(IV) O=C(CN1CCC(c2ccccc2)(c2ccccc2)C1=O)N1CCN(C(c2ccccc2)c2ccc(F)cc2)CC1 (stereo not drawn)
With regard to IC50, arrange the entries in ascending order, please. # respond with the labels, arranged in the requested order
IV, III, I, II

* * *

Target: human Cav2.2 (Homo sapiens)
Assay: Assessment of calcium channel activity using FLIPR (Ca2+ influx in IMR32 cells)
Settings: IMR32 cells endogenously expressing human Cav2.2; 60 minute pre-incubation; 2 μM nifedipine; depolarized with 80 mM KCl, 5 mM CaCl2
Method: (i) In Vitro Methods—Assessment of Calcium Channel Activity Using FLIPR: The IMR32 cells were maintained in MEM media containing 10% (v/v) FBS, 1% (v/v) antibiotic/antimitotic, 1% (v/v) sodium pyruvate and 1% (v/v) MEM NEAA. […] To determine the IC50 values, the percent inhibition of the compound at each concentration was determined relative to the activity in the absence of inhibitor, and data was fitted using non-linear regression sigmoidal dose response curve analysis with GraphPad Prism®.
readout-kind: IC50 (nM)

Here's what some known entries look like.
[
  {
    "compound": "O=C1N(CCN2CCN(c3ncccn3)CC2)CCCC1(c1ccc(F)cc1)c1ccc(F)cc1 [Example 136]",
    "system": "human Cav2.2 (Homo sapiens)",
    "IC50 / nM": 3320
  },
  {
    "compound": "O=C(CN1CCCC(c2ccccc2)(c2ccccc2)C1=O)NC1CCN(C(c2ccccc2)c2ccccc2)CC1 [Example 85]",
    "system": "human Cav2.2 (Homo sapiens)",
    "IC50 / nM": 410
  }
]

(A) O=C1N(CCN2CCc3ccc(C(F)(F)F)cc3C2)CCC1(c1ccccc1)c1ccccc1 [Example 67]
(B) O=C(CN1CCC(c2ccc(F)cc2Cl)C1=O)N1Cc2ccc(F)cc2C1 (stereo not shown) [Example 268]
Which value of IC50 is smaller, the one for A or the one for B ? Identify your selection by its label.
A

(a) O=C1N(Cc2nc(-c3cnccn3)no2)CCC1(c1ccccc1)c1ccccc1 [Example 230]
(b) COc1ccc(C2(c3ccc(OC)cc3)CCN(CCN(C)CC(O)COc3cccc4ncccc34)C2=O)cc1 (stereo not shown) [Example 106]
Which has the higher IC50, a or b ? Identify your selection by its label.
a

(a) O=C1N(Cc2nc(-c3cc(F)cc(F)c3)no2)CCC1(c1ccccc1)c1ccccc1 [Example 215]
(b) O=C(CN1CCCC(c2ccccc2)(c2ccccc2)C1=O)NC1CN(C(c2ccccc2)c2ccccc2)C1 [Example 176]
(c) COc1cccc(CCN(C)CCN2CCCC(c3ccc(F)cc3)(c3ccc(F)cc3)C2=O)c1 [Example 120]
Rank by IC50 (largest to smallest). # respond with the labels, arranged in the requested order
a, c, b

(a) O=C(CN1CCCC(c2ccccc2)(c2ccccc2)C1=O)N1CCN(C(c2ccccc2)c2ccccc2)C(=O)C1 [Example 83]
(b) O=C(CN1CCC(c2ccc(F)cc2)(c2ccc(F)cc2)C1=O)NC1CCN(Cc2cccc(C(F)(F)F)c2)CC1 [Example 208]
Which has the higher IC50, a or b ? Identify your selection by its label.
b

(I) O=C(CN1CCCC(c2ccccc2)(c2ccccc2)C1=O)N1CCC(C(c2ccccc2)c2ccccc2)CC1 [Example 76]
(II) O=C(CN1CCC(c2ccccc2)(c2ccccc2)C1=O)N1CCC(c2ccccc2)(c2ccccc2)C1 [Example 17]
Which value of IC50 is smaller, the one for I or the one for II ? Identify your selection by its label.
II
(II: 780 nM, I: 2610 nM)

(I) O=C(CN1CCCC(c2ccccc2)(c2ccccc2)C1=O)N1CCC(Oc2cccc(C(F)(F)F)c2)CC1 [Example 162]
(II) O=C(CN1CCCC(c2ccccc2)(c2ccccc2)C1=O)NC1CCOc2ccc(F)cc21 (stereo not shown) [Example 75]
Which has the higher IC50, I or II ? Identify your selection by its label.
II
